The reported measurements were obtained from PubChem BioAssay AID624351.

Assay: coupled detection enzyme interference, dose response, artefact control for MgcRacGAP inhibitor project, biochemical, coupled enzyme counter-screen (AID 624351);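 note: signal is the ADP detection kit reading of free GDP without any GAP enzyme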
Conditions: ADP Hunter coupled enzyme counter-screen, fluorescence, no MgcRacGAP; series mostly up to 80 µM
Screen size: about 2,400 compounds; about 1,400 (58%) were called active.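 Rule for the calls: active = inhibition of 30% or more at any tested dose; inconclusive = primary hits over the limit that were never retested; inactive = the rest.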 The set was probably picked from earlier hits. This is one part of the list.
Labels: 1 (yes) (active), 0 (no) (inactive)

> print(dat)
                                    compound  class.name
 1  CCOc1cc(/C=C(\C#N)C(=O)NCC2CCCO2)ccc1O (stereo unspecified)     1 (yes)
 2  CCOC(=O)c1[nH]c(=S)n(Cc2ccccc2)c1C(=O)OCC     1 (yes)
 3            Oc1ccc(-c2csc(NCc3ccco3)n2)cc1     1 (yes)
 4            Oc1ccc(-c2csc(Nc3ncccn3)n2)cc1     1 (yes)
 5  N#C/C(=C/c1ccc(O)c(O)c1)C(=O)NCc1ccc(Cl)cc1     1 (yes)
 6  Cc1nc(Cc2nnc(SCC(=O)N3CCN(c4ccc(O)cc4)CC3)o2)cs1     1 (yes)
 7  O=C(Oc1ccc2c(c1)OCO2)c1ccc(Br)c(S(=O)(=O)N2CCOCC2)c1      0 (no)
 8        COc1ccc2c(c1)-c1c(ssc1=S)C(C)(C)N2     1 (yes)
 9   CCOc1cc(/C=C(\C#N)C(=O)NCc2cccnc2)ccc1O     1 (yes)
10  COc1cccc(NC2=C(C#N)C(=O)NC(c3cccc(OC)c3O)S2)c1 (stereo unspecified)      0 (no)
11  COc1cc(/C=C/C(=O)OCc2cn3cc(Cl)ccc3n2)ccc1O     1 (yes)
12  CCOC(=O)/C(C#N)=C1\C(=O)N(Cc2ccccc2)c2ccccc21      0 (no)
13    N#C/C(=C\c1cccnc1)C(=O)Nc1cccc2ccccc12      0 (no)
14  CCOCCCNC(=O)/C(C#N)=C/c1ccc([N+](=O)[O-])o1      0 (no)
15  CCOC(=O)/C(C#N)=C1/C(=O)N(Cc2ccccc2)c2ccccc21      0 (no)
16  CS(=O)(=O)N1CCN(C2C3CC4CC(C3)CC2C4)CC1 (stereo unspecified)      0 (no)

----------
Test: coupled detection enzyme interference, dose response, artefact control for MgcRacGAP inhibitor project, biochemical, coupled enzyme counter-screen (AID 624351);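 note: signal is the ADP detection kit reading of free GDP without any GAP enzyme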
Details: ADP Hunter coupled enzyme counter-screen, fluorescence, no MgcRacGAP; series mostly up to 80 µM
In all, about 2,400 compounds went through this assay and about 1,400 (58%) were called active.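 How the source made its calls: active means inhibition of 30% or more at any tested dose; inconclusive means primary hits over the limit that were never retested; inactive means the rest.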 So high a share suggests a set chosen from earlier hits. This is one part of the list.
Labels: active, inactive

> print(dat)
                                    compound  class.name
 1         Oc1ccc(-c2csc(Nc3ccccn3)n2)c(O)c1      active
 2         COc1ccc(NCc2cc3ccccc3[nH]c2=O)cc1      active
 3          Oc1ccc(Br)cc1C=Nc1ccc2[nH]ncc2c1      active
 4  CCN(CC)c1ccc(N=Cc2ccccc2[N+](=O)[O-])cc1      active
 5  COC(=O)c1[nH]c2ccc(Cl)cc2c1NC(=O)Oc1ccccc1      active
 6  CCn1c2ccccc2c2cc(CNCc3ccc(OC)cc3OC)ccc21    inactive
 7  COc1ccc(NCc2nnc(SCC(=O)Nc3ccccc3OC)o2)cc1    inactive
 8       c1cc2c(cc1CNc1ccc(N3CCOCC3)cc1)OCO2      active
 9  COCCNCc1nc2sc(C)c(-c3ccccc3)c2c(=O)[nH]1    inactive
10  N#C/C(=C/c1ccc2c(c1)OCO2)C(=O)Nc1ccc(O)cc1      active
11         CCOC(=O)/C(C#N)=C\c1ccc(O)c(OC)c1      active
12              Cc1c(Cl)cccc1Nc1n[nH]c(=S)s1      active
13  Nc1ccccc1Sc1ccc(C(=O)c2ccccc2C(=O)O)cc1[N+](=O)[O-]    inactive
14      C=CCNC(=S)N1CCN(Cc2ccc3c(c2)OCO3)CC1    inactive
15    COC(=O)c1[nH]c2ccccc2c1NC(=O)Oc1ccccc1      active
16  O=C1/C(=C/c2ccccc2[N+](=O)[O-])COc2ccccc21    inactive
17                 COc1ccccc1Nc1n[nH]c(=S)s1      active
18  O=S(=O)(/N=S1\CC=CCN1S(=O)(=O)c1ccccc1)c1ccccc1 (stereo unspecified)    inactive
19  CCc1c(C)nc(N2CCN(c3ccc(OC)cc3)CC2)[nH]c1=O    inactive
20                   S=C(NCc1ccco1)NCc1ccco1    inactive
21   CCN(CC)c1ccc(N=Cc2c(C)[nH]c3ccccc23)cc1      active
22  COc1cc(/C=C(\C#N)C(=O)Nc2ccc3c(c2)OCCO3)ccc1O      active
23  COc1cccc(OC)c1C(=O)N1CCN(Cc2ccc3c(c2)OCO3)CC1    inactive
24  COc1cc(OC)cc(C(=O)N2CCN(Cc3ccc4c(c3)OCO4)CC2)c1    inactive
25      Cc1ccnc(Nc2nc(-c3ccc(O)c(O)c3)cs2)c1      active
26              Clc1ccccc1CNCc1ccc2c(c1)OCO2    inactive
27     Nc1ccc(Cn2ccc3c4c(N)nc(N)nc4ccc32)cc1    inactive
28     CN=c1scc(C)n1/N=C/c1cc(Br)c(O)c(Br)c1      active
29  C/C(=N\NC(=O)c1cccc(N/N=C(\C)c2cc(O)ccc2O)c1)c1cc(O)ccc1O      active
30        CCN(CC)c1ccc(NC(=O)c2ccc(Br)o2)cc1      active
31  CCN1CCN(CC(=O)Nc2cc(C(F)(F)F)ccc2OCCOC)CC1    inactive
32            CCN(CC)c1ccc(NC(=O)C2CCCC2)cc1      active
33  COc1ccccc1Nc1ccc2c(O)cc(S(=O)(=O)O)cc2c1    inactive
34  O=C(N/N=C/c1ccc(O)c(O)c1)C1c2ccccc2Oc2ccccc21      active
35        COc1ccc(C=Nc2ccc3[nH]ncc3c2)c(O)c1      active
36     CCOc1cc(/C=N/NC(=O)C(=O)N2CCCC2)ccc1O      active
37  COc1ccc(OC(=O)C2CC(=O)N(c3ccc(C)cc3)C2)cc1 (stereo unspecified)    inactive
38  COc1cc(CN2CCC(C(=O)N3CCCC(C)C3)CC2)cc(Br)c1O (stereo unspecified)    inactive
39  COc1ccc(NC(=S)NCC2CCN(c3ccc(OC)cc3)C2)cc1 (stereo unspecified)      active
40       COc1ccc(NCc2cc(=O)[nH]c3ccccc23)cc1      active
41  O=[N+]([O-])/C=C/c1ccc2c(ccn2Cc2ccccc2)c1    inactive

----------
Experiment: coupled detection enzyme interference, dose response, artefact control for MgcRacGAP inhibitor project, biochemical, coupled enzyme counter-screen (AID 624351);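 note: signal is the ADP detection kit reading of free GDP without any GAP enzyme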
Settings: ADP Hunter coupled enzyme counter-screen, fluorescence, no MgcRacGAP; series mostly up to 80 µM
Out of some 2,400 compounds screened, about 1,400 (58%) were called active.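 Rule for the calls: active = inhibition of 30% or more at any tested dose; inconclusive = primary hits over the limit that were never retested; inactive = the rest.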 So high a share suggests a set chosen from earlier hits. The list shows a part of the results.
Labels: true for active, false for inactive

> print(dat)
                                    compound  class.name
 1    N=C(N)c1ccc(/C=C/c2ccc(C(=N)N)cc2O)cc1       false
 2  CCN(CC)CCCC(C)NC(=O)c1c(NC(=O)c2ccccc2)sc2c1CCCC2 (stereo not drawn)       false
 3  COC(C(=O)N/N=C(\C)CC(=O)Nc1ccc(N(C)C)cc1)c1ccccc1 (stereo not drawn)        true
 4  Clc1ccc(CNc2ccc(N3CCN(Cc4ccccc4)CC3)cc2)cc1        true
 5  O=C(Nc1ccc(C2=NCCN2)cc1)c1ccc(C(=O)Nc2ccc(C3=NCCN3)cc2)c(Cl)c1       false
 6        COc1cc(/C=N/N(C)c2ccccc2)cc(Cl)c1O        true
 7        C#CCOc1ccccc1CNC1CCN(Cc2ccccc2)CC1       false
 8                Oc1ccc(C=NNc2ccccn2)c(O)c1        true
 9         Cc1nc(Cl)cc(N/N=C/c2ccc(O)cc2O)n1        true
10         O=C(CNC1CC1)Nc1cc(C(F)(F)F)ccc1Cl       false
11  Fc1ccc(CN2CCN(C(c3ccccc3)c3ccccc3)CC2)cc1       false
12       Cc1ccc(COC(=O)Cc2coc3cc(O)ccc23)cc1        true
13      Cc1cccc2c1c1ccc3c(c1n2C)C(=O)C=CC3=O       false
